Catalogue of solubility kinetic values
# PROTOCOL NOTES: Kinetic solubility of the compound in PBS buffer at pH 7.4 measured by HPLC analysis
Use µM as the unit, but write only the number.

Sample answers from the record:
COMPOUND	UNITS	solubility kinetic
Cc1ccc(-n2nc(C#N)c(=O)n(Cc3cccc(C(F)(F)F)c3)c2=O)cc1C	µM	67
Cc1ccc(-n2nc(C(=O)N3CCCCC3)c(=O)n(Cc3cccc(F)c3)c2=O)cc1C	µM	17
Cc1ccc(-n2nc(C#N)c(=O)n(Cc3cccc(F)c3)c2=O)cc1C	µM	15
Cc1ccc(-n2nc(C(=O)N3CCCC3)c(=O)n(Cc3ccccc3)c2=O)cc1C	µM	30
Cc1ccc(-n2nc(C(=O)N3CCC(F)(F)CC3)c(=O)n(Cc3ccccc3)c2=O)cc1C	µM	36
Cc1ccc(-n2nc(C(=O)N(C)C)c(=O)n(Cc3ccccc3)c2=O)cc1C	µM	56
COc1cccc(Cn2c(=O)c(C#N)nn(-c3ccc(C)c(C)c3)c2=O)c1	µM	103
CCOC(=O)C1CCCN(C(=O)c2nn(-c3ccc(C)c(C)c3)c(=O)n(Cc3cccc(F)c3)c2=O)C1 (centres undefined)	µM	90
Cc1ccc(-n2nc(C(=O)N3CCC[C@@H](CNC(=O)OC(C)(C)C)C3)c(=O)n(Cc3cccc(F)c3)c2=O)cc1C	µM	57
Cc1ccc(-n2nc(C(=O)N3CCCN(C(=O)OC(C)(C)C)C3)c(=O)n(Cc3cccc(F)c3)c2=O)cc1C	µM	54

### Prompt Answer with the recorded solubility kinetic for the compound listed here: Cc1ccc(-n2nc(C(=O)N3CCOCC3)c(=O)n(Cc3ccccc3)c2=O)cc1C
### Response 44

### Prompt Answer with the recorded solubility kinetic for the compound listed here: CC#CCn1c(=O)c(C#N)nn(-c2ccc(C)c(C)c2)c1=O
### Response 71

====

Catalogue of inhibition at 20 µM values
# Tested on: MDA-MB-231
# PROTOCOL NOTES: cells
# MEASUREMENT SETUP: Homo sapiens, MDA-MB-231, 72 h, read-out: INH
# Description: Antitumor activity against human MDA-MB-231 cells assessed as inhibition of cell viability by measuring inhibition rate at 20 uM measured after 72 hrs by CCK-8 assay relative to control
Use % as the unit, but write only the number.

TEST SMILES	UNITS	inhibition at 20 µM
Cc1ccc(-n2nc(C#N)c(=O)n(Cc3cccnc3)c2=O)cc1C	%	34.8
Cc1ccc(-n2nc(C(=O)N3CCC[C@@H](CNC(=O)OC(C)(C)C)C3)c(=O)n(Cc3cccc(F)c3)c2=O)cc1C	%	99.3
Cc1ccc(-n2nc(C(=O)N3CCCCCC3)c(=O)n(Cc3ccccc3)c2=O)cc1C	%	99.7
Cc1ccc(-n2nc(C(=O)N3CCC(C(=O)OC(C)(C)C)CC3)c(=O)n(Cc3cccc(F)c3)c2=O)cc1C	%	90.4
COc1cccc(Cn2c(=O)c(C#N)nn(-c3ccc(C)c(C)c3)c2=O)c1	%	97.4
Cc1ccc(-n2nc(C(=O)N3CCNCC3)c(=O)n(Cc3ccccc3)c2=O)cc1C	%	96.7

### Prompt Output reported inhibition at 20 µM of the compound Cc1ccc(-n2nc(C(=O)N3CCC[C@@H](NC(=O)OC(C)(C)C)C3)c(=O)n(Cc3cccc(F)c3)c2=O)cc1C on MDA-MB-231.
### Response 98.3

### Prompt Output reported inhibition at 20 µM of the compound Cc1ccc(-n2nc(C(=O)N3CCC(F)(F)CC3)c(=O)n(Cc3ccccc3)c2=O)cc1C on MDA-MB-231.
### Response 96.8

### Prompt Output reported inhibition at 20 µM of the compound Cc1ccc(-n2nc(C(=O)N3CCOCC3)c(=O)n(Cc3ccccc3)c2=O)cc1C on MDA-MB-231.
### Response 95.8

### Prompt Output reported inhibition at 20 µM of the compound Cc1ccc(-n2nc(C(=O)N3CCCCC3)c(=O)n(Cc3ccc(F)cc3)c2=O)cc1C on MDA-MB-231.
### Response 94.1

All values here come from ChEMBL document CHEMBL5579887.
